system: 699152-130-R-J1-PDC complex spheroid growth; test: Anticancer human tumor 699152-130-R-J1-PDC patient-derived pancreatic carcinoma cell line growth inhibition [AhR]; details: second compound 10 µM; first compound 0.03 µM; active means viability on the fitted dose curve at most 10% of control; inactive means the rest
I would appreciate it if you answered using one of these outcomes: t for active, f for inactive

Ask: Returns: the outcome recorded for CCc1c2c(nc3ccc(O)cc13)-c1cc3c(c(=O)n1C2)COC(=O)[C@]3(O)CC + Cc1cncc(-c2nc(NCCc3c[nH]c4ccccc34)c3ncn(C(C)C)c3n2)c1 in this assay.
Reply: f

Ask: Returns: the outcome recorded for O=C(C=Cn1cnc(-c2cc(C(F)(F)F)cc(C(F)(F)F)c2)n1)NNc1cnccn1 + Cc1ccccc1N=Nc1ccc(NC(=O)c2ccnn2C)c(C)c1 in this assay.
Reply: f

Ask: Returns: the outcome recorded for Nc1ncn(C2CC(O)C(CO)S2)c(=O)n1 (centres undefined) + CC(CO)NC(=O)c1cc(-c2ccc(Cl)cc2)nn(-c2cnn(C)c2)c1=O in this assay.
Reply: f

Ask: Returns: the outcome recorded for CC(C)CC(NC(=O)C(Cc1ccccc1)NC(=O)c1cnccn1)B(O)O (centres undefined) + Cc1ccccc1N=Nc1ccc(NC(=O)c2ccnn2C)c(C)c1 in this assay.
Reply: t

Ask: Returns: the outcome recorded for CC(C)CC(NC(=O)C(Cc1ccccc1)NC(=O)c1cnccn1)B(O)O (centres undefined) + Cc1cncc(-c2nc(NCCc3c[nH]c4ccccc34)c3ncn(C(C)C)c3n2)c1 in this assay.
Reply: t

Ask: Returns: the outcome recorded for CCc1c2c(nc3ccc(O)cc13)-c1cc3c(c(=O)n1C2)COC(=O)[C@]3(O)CC + CC(CO)NC(=O)c1cc(-c2ccc(Cl)cc2)nn(-c2cnn(C)c2)c1=O in this assay.
Reply: f

Ask: Returns: the outcome recorded for O=C(C=Cn1cnc(-c2cc(C(F)(F)F)cc(C(F)(F)F)c2)n1)NNc1cnccn1 + Cc1cncc(-c2nc(NCCc3c[nH]c4ccccc34)c3ncn(C(C)C)c3n2)c1 in this assay.
Reply: f

Ask: Returns: the outcome recorded for CCN(c1cc(-c2ccc(CN3CCOCC3)cc2)cc(C(=O)NCc2c(C)cc(C)[nH]c2=O)c1C)C1CCOCC1 + CC(CO)NC(=O)c1cc(-c2ccc(Cl)cc2)nn(-c2cnn(C)c2)c1=O in this assay.
Reply: f

Ask: Returns: the outcome recorded for CC(C)CC(NC(=O)C(Cc1ccccc1)NC(=O)c1cnccn1)B(O)O (centres undefined) + CC(CO)NC(=O)c1cc(-c2ccc(Cl)cc2)nn(-c2cnn(C)c2)c1=O in this assay.
Reply: t

* * *

Tested on: 699152-130-R-J1-PDC complex spheroid growth
Experiment: Anticancer human tumor 699152-130-R-J1-PDC cell line growth inhibition [AhR];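 further: compound exposure lasted 7 days after spheroids had grown for 3 days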
Settings: second compound 0.1 µM; first compound 0.0316 µM; stronger effect = lower value
Text: Multicellular complex tumor spheroid response to aryl hydrocarbon receptor antagonists in combination with a variety of drugs and investigational agents in selected tumor cell lines […] Compounds. […] If the clinical Cmax for an agent had not been determined, the highest concentration tested was 10 microM (Table 1). […]
assay metric: viability, T/C (%)
Quick note: give the figure in %, leave out the unit.

Ask: Consider the compound shown here: Nc1ccccc1NC(=O)c1ccc(CNC(=O)OCc2cccnc2)cc1 + Cc1ccccc1N=Nc1ccc(NC(=O)c2ccnn2C)c(C)c1 What is its recorded viability, T/C?
Reply: 85.7

Ask: Consider the compound shown here: O=C(C=Cc1cccc(S(=O)(=O)Nc2ccccc2)c1)NO + CC(CO)NC(=O)c1cc(-c2ccc(Cl)cc2)nn(-c2cnn(C)c2)c1=O What is its recorded viability, T/C?
Reply: 102

Ask: Consider the compound shown here: Nc1ccccc1NC(=O)c1ccc(CNC(=O)OCc2cccnc2)cc1 + Cc1cncc(-c2nc(NCCc3c[nH]c4ccccc34)c3ncn(C(C)C)c3n2)c1 What is its recorded viability, T/C?
Reply: 94.9

Ask: Consider the compound shown here: COc1cc(C2c3cc4c(cc3C(OC3OC5COC(C)OC5C(O)C3O)C3COC(=O)C23)OCO4)cc(OC)c1O (configuration not stated) + Cc1cncc(-c2nc(NCCc3c[nH]c4ccccc34)c3ncn(C(C)C)c3n2)c1 What is its recorded viability, T/C?
Reply: 106

Ask: Consider the compound shown here: NS(=O)(=O)OCC1CC(n2ccc3c(NC4CCc5ccccc54)ncnc32)CC1O (configuration not stated) + Cc1ccccc1N=Nc1ccc(NC(=O)c2ccnn2C)c(C)c1 What is its recorded viability, T/C?
Reply: 98.3

Ask: Consider the compound shown here: COc1cccc2c1C(=O)c1c(O)c3c(c(O)c1C2=O)CC(O)(C(=O)CO)CC3OC1CC(N)C(O)C(C)O1 (configuration not stated) + CC(CO)NC(=O)c1cc(-c2ccc(Cl)cc2)nn(-c2cnn(C)c2)c1=O What is its recorded viability, T/C?
Reply: 71.2

Ask: Consider the compound shown here: COc1cc(C2c3cc4c(cc3C(OC3OC5COC(C)OC5C(O)C3O)C3COC(=O)C23)OCO4)cc(OC)c1O (configuration not stated) + Cc1ccccc1N=Nc1ccc(NC(=O)c2ccnn2C)c(C)c1 What is its recorded viability, T/C?
Reply: 96.8

Ask: Consider the compound shown here: COc1ccc([C@@H](O)c2cc(-c3ncnc4cc(N5CCOCC5)ccc34)c(F)cc2Cl)nn1 + Cc1cncc(-c2nc(NCCc3c[nH]c4ccccc34)c3ncn(C(C)C)c3n2)c1 What is its recorded viability, T/C?
Reply: 100

Ask: Consider the compound shown here: Nc1ncn(C2CC(O)C(CO)O2)c(=O)n1 (configuration not stated) + CC(CO)NC(=O)c1cc(-c2ccc(Cl)cc2)nn(-c2cnn(C)c2)c1=O What is its recorded viability, T/C?
Reply: 97

Ask: Consider the compound shown here: CC1(C)CCC(CN2CCN(c3ccc(C(=O)NS(=O)(=O)c4ccc(NCC5CCOCC5)c([N+](=O)[O-])c4)c(Oc4cnc5[nH]ccc5c4)c3)CC2)=C(c2ccc(Cl)cc2)C1 + Cc1cncc(-c2nc(NCCc3c[nH]c4ccccc34)c3ncn(C(C)C)c3n2)c1 What is its recorded viability, T/C?
Reply: 101

Ask: Consider the compound shown here: CC1COCCN1c1cc(C2(S(C)(=N)=O)CC2)nc(-c2ccnc3[nH]ccc23)n1 (configuration not stated) + Cc1cncc(-c2nc(NCCc3c[nH]c4ccccc34)c3ncn(C(C)C)c3n2)c1 What is its recorded viability, T/C?
Reply: 98.9

Ask: Consider the compound shown here: COc1cc(Nc2ncc3c(n2)-c2ccc(Cl)cc2C(c2c(F)cccc2OC)=NC3)ccc1C(=O)O + Cc1ccccc1N=Nc1ccc(NC(=O)c2ccnn2C)c(C)c1 What is its recorded viability, T/C?
Reply: 89.9

* * *

Consider the following compounds; for each one, report its IC50.
test system: 699152-130-R-J1-PDC complex spheroid growth; test: Anticancer human tumor 699152-130-R-J1-PDC cell line growth inhibition [AhR]; conditions: curve of first compound; second compound 3.16 µM;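 further: compound exposure lasted 7 days after spheroids had grown for 3 days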

Ask: Consider the compound shown here: Nc1ccn(C2OC(CO)C(O)C2(F)F)c(=O)n1 (configuration not stated) + Cc1cncc(-c2nc(NCCc3c[nH]c4ccccc34)c3ncn(C(C)C)c3n2)c1 What is its recorded IC50?
Reply: 0.864 µM

Ask: Consider the compound shown here: Cn1ncnc1C1c2n[nH]c(=O)c3cc(F)cc(c23)NC1c1ccc(F)cc1 (configuration not stated) + Cc1ccccc1N=Nc1ccc(NC(=O)c2ccnn2C)c(C)c1 What is its recorded IC50?
Reply: > 0.1 µM

Ask: Consider the compound shown here: CC[C@@]1(O)C(=O)OCc2c1cc1n(c2=O)Cc2cc3c(CN(C)C)c(O)ccc3nc2-1 + Cc1cncc(-c2nc(NCCc3c[nH]c4ccccc34)c3ncn(C(C)C)c3n2)c1 What is its recorded IC50?
Reply: > 0.1 µM

Ask: Consider the compound shown here: CCN(c1cc(-c2ccc(CN3CCOCC3)cc2)cc(C(=O)NCc2c(C)cc(C)[nH]c2=O)c1C)C1CCOCC1 + Cc1cncc(-c2nc(NCCc3c[nH]c4ccccc34)c3ncn(C(C)C)c3n2)c1 What is its recorded IC50?
Reply: > 3 µM

Ask: Consider the compound shown here: Nc1ncn(C2CC(O)C(CO)S2)c(=O)n1 (configuration not stated) + Cc1cncc(-c2nc(NCCc3c[nH]c4ccccc34)c3ncn(C(C)C)c3n2)c1 What is its recorded IC50?
Reply: > 0.3 µM

Ask: Consider the compound shown here: COc1cc(C2c3cc4c(cc3C(OC3OC5COC(C)OC5C(O)C3O)C3COC(=O)C23)OCO4)cc(OC)c1O (configuration not stated) + Cc1ccccc1N=Nc1ccc(NC(=O)c2ccnn2C)c(C)c1 What is its recorded IC50?
Reply: 7.2 µM

Ask: Consider the compound shown here: Nc1ncn(C2CC(O)C(CO)O2)c(=O)n1 (configuration not stated) + CC(CO)NC(=O)c1cc(-c2ccc(Cl)cc2)nn(-c2cnn(C)c2)c1=O What is its recorded IC50?
Reply: > 1 µM

Ask: Consider the compound shown here: CC1(C)CCC(CN2CCN(c3ccc(C(=O)NS(=O)(=O)c4ccc(NCC5CCOCC5)c([N+](=O)[O-])c4)c(Oc4cnc5[nH]ccc5c4)c3)CC2)=C(c2ccc(Cl)cc2)C1 + Cc1ccccc1N=Nc1ccc(NC(=O)c2ccnn2C)c(C)c1 What is its recorded IC50?
Reply: > 10 µM

Ask: Consider the compound shown here: CC(C)c1c(-c2ccccc2)nc2c(C#N)c[nH]n2c1=O + Cc1ccccc1N=Nc1ccc(NC(=O)c2ccnn2C)c(C)c1 What is its recorded IC50?
Reply: > 10 µM

Ask: Consider the compound shown here: COc1ccc([C@@H](O)c2cc(-c3ncnc4cc(N5CCOCC5)ccc34)c(F)cc2Cl)nn1 + CC(CO)NC(=O)c1cc(-c2ccc(Cl)cc2)nn(-c2cnn(C)c2)c1=O What is its recorded IC50?
Reply: 4.24 µM

Ask: Consider the compound shown here: O=C(C=Cn1cnc(-c2cc(C(F)(F)F)cc(C(F)(F)F)c2)n1)NNc1cnccn1 + CC(CO)NC(=O)c1cc(-c2ccc(Cl)cc2)nn(-c2cnn(C)c2)c1=O What is its recorded IC50?
Reply: > 3 µM

Ask: Consider the compound shown here: CC1COCCN1c1cc(C2(S(C)(=N)=O)CC2)nc(-c2ccnc3[nH]ccc23)n1 (configuration not stated) + Cc1cncc(-c2nc(NCCc3c[nH]c4ccccc34)c3ncn(C(C)C)c3n2)c1 What is its recorded IC50?
Reply: > 10 µM
